These data points were gathered from ChEMBL document CHEMBL1221269.

- Test system: HepG2
- Experiment Notes: Cytotoxicity against human HepG2 cells after 48 hrs by MTT assay
- Format: functional, cell-based
- Conditions Used: HepG2, 48 h
Assignment: determine reported pIC50 for the given molecules.
Bear in mind: pIC50 is minus log10 of a mol/L concentration; give just that figure.

Data request: Lookup: pIC50 / HepG2 / O=C1Nc2ccccc2C1(c1c[nH]c2ccc(Br)cc12)c1c[nH]c2ccc(Br)cc12
Data returned: 4.80

Data request: Recorded pIC50 for Cn1cc(C2(c3cn(C)c4ccccc34)C(=O)Nc3ccc(F)cc32)c2ccccc21 with HepG2, please?
Data returned: 4.89

Data request: Missing value: pIC50, HepG2, entry O=C1Nc2ccccc2C1(c1c[nH]c2ccc([N+](=O)[O-])cc12)c1c[nH]c2ccc([N+](=O)[O-])cc12 . Fill in?
Data returned: 4.63

Data request: Give HepG2 pIC50 for COc1ccc2c(C3(c4c[nH]c5cc(OC)ccc45)C(=O)Nc4ccc(F)cc43)c[nH]c2c1
Data returned: 4.80

Data request: Any idea what pIC50 came out for O=C1Nc2ccccc2C1(c1c[nH]c2ccccc12)c1c[nH]c2ccccc12 on HepG2?
Data returned: 4.69

Data request: I'm curious: which pIC50 was measured for COc1cccc2[nH]cc(C3(c4c[nH]c5cccc(OC)c45)C(=O)Nc4ccccc43)c12 tested on HepG2?
Data returned: 5.05

Data request: Query for HepG2: what pIC50 does the record show for COc1ccc2c(C3(c4c[nH]c5cc(OC)ccc45)C(=O)Nc4ccccc43)c[nH]c2c1 ?
Data returned: 4.92

Data request: Enter reported pIC50 observed with HepG2 for O=C1Nc2ccc(F)cc2C1(c1c[nH]c2ccccc12)c1c[nH]c2ccccc12
Data returned: 5.18

Data request: API: value(readout= pIC50, system= HepG2, query= Cn1cc(C2(c3cn(C)c4ccccc34)C(=O)Nc3ccccc32)c2ccccc21 )
Data returned: 4.92
